Structures can show the parent of a compound that is named as a salt.
parameter-measured: melting point

Solved cases below.
molecule="O=C(NCC1CCCCC1)c1c(Cl)ccc2nc(N3CCC(C(=O)O)CC3)ccc12 (as salt: sodium)" result="320 to 324 °C"
molecule=O=C(CC1CCCCC1)Nc1c(Cl)ccc2nc(N3CC[C@H](O)C3)ccc12 result="219 to 221 °C"
molecule=O=C(O)CNc1ccc2c(NC(=O)CC3CCCCC3)c(Cl)ccc2n1 result="222 to 225 °C (dec.)"
molecule="O=C(CC1CCCCC1)Nc1cccc2ncccc12 [Example 18, N-5-Quinolinyl-cyclohexaneacetamide]" result="183 to 184 °C"
molecule=CS(=O)(=O)NC(=O)NCCCc1ccc2c(NC(=O)CC3CCCCC3)c(Cl)ccc2n1 result="151 to 152 °C"
molecule=NC1CCN(c2ccc3c(NC(=O)CC4CCCCC4)c(Cl)ccc3n2)CC1 result="333 to 334 °C"

I need melting point for every entry listed below, if you could help.
1. O=C(CC1CCCCC1)Nc1c(Cl)ccc2nc(CCCc3nnn[nH]3)ccc12 (as salt: trifluoroacetate)
2. Cc1ccc2nc(N3CC[C@H](N)C3)ccc2c1NC(=O)CC1CCCCC1
3. O=C(CC1CCC(C(F)(F)F)CC1)Nc1c(Cl)ccc2nc(N3CCNCC3)ccc12 (stereo not drawn)

## Result
1. 140 to 145 °C
2. 223 to 224 °C
3. 186 to 190 °C

---

# test-system: P2X7 receptor (Homo sapiens, UniProt Q99572)
# Construct: 200 μl of a suspension of THP-1 cells; endogenous in cells; host or cells: THP-1 cells
# Sequence (Q99572 whole entry): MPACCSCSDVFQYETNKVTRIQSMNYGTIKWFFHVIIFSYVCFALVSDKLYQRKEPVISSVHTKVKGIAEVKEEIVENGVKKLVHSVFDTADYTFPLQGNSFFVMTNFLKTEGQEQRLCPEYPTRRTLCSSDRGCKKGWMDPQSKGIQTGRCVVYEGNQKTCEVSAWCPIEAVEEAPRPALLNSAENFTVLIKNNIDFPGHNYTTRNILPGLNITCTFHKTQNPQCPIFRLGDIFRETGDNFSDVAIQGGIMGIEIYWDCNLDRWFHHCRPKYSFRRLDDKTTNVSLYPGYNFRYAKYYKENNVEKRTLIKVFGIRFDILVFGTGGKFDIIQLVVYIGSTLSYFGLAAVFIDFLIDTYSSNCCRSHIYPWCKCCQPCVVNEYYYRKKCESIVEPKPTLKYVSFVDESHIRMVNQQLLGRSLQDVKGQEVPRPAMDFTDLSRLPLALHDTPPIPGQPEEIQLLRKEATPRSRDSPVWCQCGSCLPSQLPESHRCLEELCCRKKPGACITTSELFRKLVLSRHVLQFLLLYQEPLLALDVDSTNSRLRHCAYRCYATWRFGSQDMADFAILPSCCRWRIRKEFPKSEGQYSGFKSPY
# test-details: P2X7 receptor antagonist activity: bbATP-induced ethidium bromide fluorescence in THP-1 cells
# Assay type: cell-based
# experimental-parameters: THP-1 cells; negative logarithm of concentration reducing bbATP agonist activity by 50%; ethidium bromide fluorescence; 37° C., one hour; read-out: pIC50 (converted)
Where a name gives a salt, the structure may show the parent alone.
Please go through the items and note down their IC50.
Just so you know, I need the unit written after the number.

Solved cases below.
compound="CC1CCC(CC(=O)Nc2cccc3ncccc23)CC1 (stereo not drawn)" parameter_measured=IC50 result="126 nM"
compound=O=C1CN([C@H]2CCN(c3ccc4c(C(=O)NCC5CCCCC5)c(Cl)ccc4n3)C2)S(=O)(=O)N1 parameter_measured=IC50 result="316 nM"
compound="O=C(CC1CCCCC1)Nc1c(Cl)ccc2nc(NCCCO)ccc12 [Example 5, Hydrochloride]" parameter_measured=IC50 result="126 nM"
compound=O=C(CC1CCCCC1)Nc1c(Cl)ccc2nc(N3CCC(c4noc(=O)[nH]4)CC3)ccc12 parameter_measured=IC50 result="200 nM"
compound=O=C(CC1CCCCC1)Nc1c(Cl)ccc2nc(N3CCC[C@@H](O)C3)ccc12 parameter_measured=IC50 result="50.1 nM"

As a next step, examine the compound that follows.
## Task Given O=C(NCC1CCCCC1)c1c(Cl)ccc2ncccc12 , respond with its IC50.
## Result 316 nM

---

Please go through the items and note down their melting point.
Where a name gives a salt, the structure may show the parent alone.

Solved cases below.
compound=O=C(CC1CCCCC1)Nc1c(Cl)ccc2nc(N3CCCNCC3)ccc12 result="186 to 188 °C"
compound=O=C(NCC1CCCCC1)c1c(Cl)ccc2nc(N3CC(O)C3)ccc12 result="206 to 208 °C"
compound=O=C(NCC1CCCCC1)c1c(Cl)ccc2nc(N3CCC[C@@H]3C(=O)O)ccc12 result="157 to 160 °C"
compound=O=C(CC1CCCCC1)Nc1c(Cl)ccc2nc(N3CCC(c4nnn[nH]4)CC3)ccc12 result="295 to 300 °C"
compound="O=C(CC1CCCCC1)Nc1c(Cl)ccc2nc(N3CCCC3CNCCO)ccc12 (stereo not drawn)" result="157 to 158 °C"
compound=O=C(CC1CCCCC1)Nc1c(Cl)ccc2nc(CCCNCCCO)ccc12 result="159 to 163 °C"
compound=Cc1ccc2ncccc2c1C(=O)NCC1CCCCC1 result="165 °C"
compound="O=C(CC1CCCCC1)Nc1c(Cl)ccc2nc(NCCNCCO)ccc12 (as salt: hydrochloride) [Example 17, Dihydrochloride]" result="238 to 240 °C"

## Task Given CN1CCN(c2ccc3c(NC(=O)CC4CCCCC4)c(Cl)ccc3n2)CC1 (as salt: hydrochloride) , respond with its melting point.
## Result 270 °C (dec.)

Where these numbers come from: patent US7408065B2
